assaySystem: human S1P1 (Homo sapiens (Human), UniProt P21453)
Sequence (P21453 whole entry): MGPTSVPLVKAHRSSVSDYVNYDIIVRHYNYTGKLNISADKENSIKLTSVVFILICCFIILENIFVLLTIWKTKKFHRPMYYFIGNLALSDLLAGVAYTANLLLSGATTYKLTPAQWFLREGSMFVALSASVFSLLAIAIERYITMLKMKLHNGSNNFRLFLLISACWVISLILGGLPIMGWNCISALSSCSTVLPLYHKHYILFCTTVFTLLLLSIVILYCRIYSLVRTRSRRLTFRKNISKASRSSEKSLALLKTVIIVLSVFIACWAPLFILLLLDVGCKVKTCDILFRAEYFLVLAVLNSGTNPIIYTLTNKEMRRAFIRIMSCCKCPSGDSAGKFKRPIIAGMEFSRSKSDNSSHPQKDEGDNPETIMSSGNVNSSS
assayNotes: In vitro functional activity (agonism) on human S1P1 receptors (method A), CHO-K1-human-S1P1-Aequorin assay
Format: cell-based
measurementConditions: agonism, determined using method A (aequorin luminescence, CHO-K1 cells), 2 independent experiments; read-out: S1P1^A pEC50 (converted)
Counter-ions that a name gives are not always drawn.
endpoint: EC50 (µM)
Could you give me the number in µM? Just the number is fine.

Notebook: CC(CN1CCC2(CC1)COc1cc(SCc3c(Cl)cccc3Cl)ccc12)C(=O)O (centres unmarked) [Compound 153, hydrochloride] , EC50 read as 1

Notebook: O=C(O)CCN1CCC2(CC1)COc1cc(OCc3c(Cl)cccc3OC(F)(F)F)ccc12 [Compound 77, hydrochloride] , EC50 read as 6.31

Notebook: CC(C)c1cccc(Cl)c1COc1ccc2c(c1)OCC21CCN(CCCC(=O)O)CC1 [Compound 127, hydrochloride] , EC50 read as 7.94

Notebook: O=C(O)CCN1CCC2(CC1)COc1cc(OCc3c(Cl)cccc3C3CC3)ccc12 [Compound 75, hydrochloride] , EC50 read as 2.51

Notebook: O=C(O)CCN1CCC2(CC1)COc1cc(SCc3c(Cl)cccc3C3CC3)ccc12 [Compound 141, hydrochloride] , EC50 read as 0.316

Notebook: CC(CN1CCC2(CC1)COc1cc(OCc3c(Cl)cc(Cl)cc3Cl)ccc12)C(=O)O (centres unmarked) [Compound 102, hydrochloride] , EC50 read as 0.631

Notebook: O=C(O)CCCN1CCC2(CC1)COc1cc(OCc3c(Cl)cccc3C3CC3)ccc12 [Compound 121, hydrochloride] , EC50 read as 5.01

Notebook: CCc1cccc(Cl)c1COc1ccc2c(c1F)OCC21CCN(CCC(=O)O)CC1 [Compound 136, hydrochloride] , EC50 read as 1.26

Notebook: O=C(O)CCN1CCC2(CC1)COc1cc(OCc3c(F)cccc3C3CC3)ccc12 [Compound 253] , EC50 read as 2.51

Notebook: CCCCCCCCOc1ccc2c(c1F)OCC21CCN(CCC(=O)O)CC1 [Compound 277] , EC50 read as 0.0794

---

assaySystem: human S1P3 receptor (Homo sapiens (Human))
Sequence (Q99500 whole entry): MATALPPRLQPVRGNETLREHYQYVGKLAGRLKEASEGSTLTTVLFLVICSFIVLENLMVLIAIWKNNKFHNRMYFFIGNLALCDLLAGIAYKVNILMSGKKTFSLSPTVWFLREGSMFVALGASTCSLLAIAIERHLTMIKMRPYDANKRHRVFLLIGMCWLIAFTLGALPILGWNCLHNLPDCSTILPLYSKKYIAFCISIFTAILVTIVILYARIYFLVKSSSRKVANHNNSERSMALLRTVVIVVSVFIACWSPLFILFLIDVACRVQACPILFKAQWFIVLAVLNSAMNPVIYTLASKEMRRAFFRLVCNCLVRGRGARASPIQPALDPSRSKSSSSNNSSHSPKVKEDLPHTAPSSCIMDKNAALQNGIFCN
assayNotes: In vitro functional activity (agonism) on human S1P3 receptors, CHO-human-S1P3-Aequorin assay
Format: cell-based
measurementConditions: aequorin luminescence, CHO K1 cells, 3 independent experiments, read-out: S1P3 pEC50 (converted)
Structures can show the parent of a compound that is named as a salt.
I'd appreciate it if you could supply EC50 values for the items below.

Notebook: O=C(O)CCCN1CCC2(CC1)COc1cc(OCc3c(Cl)cccc3Cl)ccc12 [Compound 128, hydrochloride] , EC50 read as > 10 µM

Notebook: O=C(O)CN1CCC2(CC1)COc1cc(C3CC3c3c(Cl)cccc3Cl)ccc12 (stereo not drawn) [Compound 176, hydrochloride] , EC50 read as > 10 µM

Notebook: O=C(O)CCN1CCC2(CC1)COc1cc(C#Cc3ccccc3)ccc12 [Compound 303, hydrochloride] , EC50 read as > 10 µM

Notebook: O=C(O)CCN1CCC2(CC1)COc1cc(/C=C/c3ccccc3F)ccc12 [Compound 171, hydrochloride] , EC50 read as > 10 µM

Notebook: CCc1cccc(Cl)c1COc1ccc2c(c1)OCC21CCN(CC(=O)O)CC1 [Compound 111, hydrochloride] , EC50 read as 2 µM

Notebook: O=C(O)CCN1CCC2(CC1)COc1cc(OC3CCc4cc(Cl)cc(Cl)c43)ccc12 (stereo not drawn) , EC50 read as > 10 µM

Notebook: O=C(O)CCN1CCC2(CC1)OCc1cc(OCc3c(Cl)cccc3Cl)ccc12 [Compound 203, hydrochloride] , EC50 read as > 10 µM

Notebook: O=C(O)CCN1CCC2(CC1)COc1cc(OCc3c(Cl)cccc3Cl)ccc12 [Compound 29, hydrochloride] , EC50 read as > 31.6 µM

Notebook: CCc1cccc(Cl)c1CSc1ccc2c(c1F)OCC21CCN(CCC(=O)O)CC1 [Compound 296, hydrochloride] , EC50 read as > 10 µM

Notebook: CC(C)c1cccc(Cl)c1COc1ccc2c(c1)OCC21CCN(CCCC(=O)O)CC1 [Compound 127, hydrochloride] , EC50 read as 2.51 µM

Notebook: O=C(O)CCN1CCC2(CC1)COc1cc(C3CC3c3c(Cl)cccc3Cl)ccc12 (stereo not drawn) [Compound 178, hydrochloride] , EC50 read as 3.16 µM

Notebook: O=C(O)CCN1CCC2(CC1)COc1cc(OCc3c(F)cccc3C3CC3)ccc12 , EC50 read as > 10 µM

Notebook: CCCCCCCOc1ccc2c(c1F)OCC21CCN(CCC(=O)O)CC1 , EC50 read as > 10 µM

Notebook: CCc1cccc(Cl)c1COc1ccc2c(c1F)OCC21CCN(CCC(=O)O)CC1 [Compound 136, hydrochloride] , EC50 read as > 10 µM

Notebook: O=C(O)CCN1CCC2(CC1)COc1cc(/C=C/c3c(Cl)cccc3Cl)ccc12 [Compound 160, hydrochloride] , EC50 read as > 10 µM

Notebook: Cc1cc(Cl)c(COc2ccc3c(c2)OCC32CCN(CCC(=O)O)CC2)c(Cl)c1 [Compound 59, hydrochloride] , EC50 read as > 10 µM

Notebook: CCCCCCCCOc1ccc2c(c1F)OCC21CCN(CCC(=O)O)CC1 , EC50 read as > 10 µM

Notebook: O=C(O)CCN1CCC2(CC1)COc1c2ccc(OCc2c(Cl)cc(Cl)cc2Cl)c1F [Compound 132, hydrochloride] , EC50 read as 2 µM

Notebook: O=C(O)CCN1CCC2(CC1)COc1cc(OCc3c(Cl)cccc3C3CC3)ccc12 [Compound 75, hydrochloride] , EC50 read as > 10 µM

Notebook: CC(CN1CCC2(CC1)COc1cc(OCc3c(Cl)cccc3Cl)ccc12)C(=O)O (stereo not drawn) [Compound 100, hydrochloride] , EC50 read as > 10 µM

Notebook: CCc1ccc(Cl)c(COc2ccc3c(c2)OCC32CCN(CCC(=O)O)CC2)c1 [Compound 51, hydrochloride] , EC50 read as > 10 µM

Notebook: O=C(O)CCN1CCC2(CC1)COc1cc(SCc3c(Cl)cccc3C3CC3)ccc12 [Compound 141, hydrochloride] , EC50 read as > 10 µM

Notebook: O=C(O)CCN1CCC2(CC1)COc1cc(OCc3c(Cl)cccc3OC(F)(F)F)ccc12 [Compound 77, hydrochloride] , EC50 read as > 10 µM

Notebook: O=C(O)CCN1CCCC2(COc3cc(OCc4c(Cl)cccc4C(F)(F)F)ccc32)C1 (stereo not drawn) , EC50 read as > 10 µM

Notebook: O=C(O)CN1CCC2(CC1)COc1cc(OCc3c(Cl)cc(Cl)cc3Cl)ccc12 [Compound 110, hydrochloride] , EC50 read as 2 µM

Notebook: CCc1ccc(Cl)c(COc2ccc3c(c2)OCC32CCN(CCC(=O)O)CC2)c1Cl [Compound 68, hydrochloride] , EC50 read as > 10 µM

Notebook: O=C(O)CCCN1CCC2(CC1)COc1cc(OCc3c(Cl)cccc3C3CC3)ccc12 [Compound 121, hydrochloride] , EC50 read as > 10 µM

Notebook: CCc1cccc(CC)c1COc1ccc2c(c1)OCC21CCN(CCC(=O)O)CC1 , EC50 read as > 10 µM

Notebook: CCc1ccc(Cl)c(C2CC2c2ccc3c(c2)OCC32CCN(CCC(=O)O)CC2)c1 (stereo not drawn) [Compound 182, hydrochloride] , EC50 read as > 10 µM

Notebook: Cc1c(OCc2c(Cl)cccc2Cl)ccc2c1OCC21CCN(CCC(=O)O)CC1 [Compound 129, hydrochloride] , EC50 read as > 10 µM

---

I'd appreciate it if you could supply S1P5 pEC50 values for the items below.
assaySystem: human S1P5 receptor (Homo sapiens (Human), UniProt Q9H228)
Sequence (Q9H228 whole entry): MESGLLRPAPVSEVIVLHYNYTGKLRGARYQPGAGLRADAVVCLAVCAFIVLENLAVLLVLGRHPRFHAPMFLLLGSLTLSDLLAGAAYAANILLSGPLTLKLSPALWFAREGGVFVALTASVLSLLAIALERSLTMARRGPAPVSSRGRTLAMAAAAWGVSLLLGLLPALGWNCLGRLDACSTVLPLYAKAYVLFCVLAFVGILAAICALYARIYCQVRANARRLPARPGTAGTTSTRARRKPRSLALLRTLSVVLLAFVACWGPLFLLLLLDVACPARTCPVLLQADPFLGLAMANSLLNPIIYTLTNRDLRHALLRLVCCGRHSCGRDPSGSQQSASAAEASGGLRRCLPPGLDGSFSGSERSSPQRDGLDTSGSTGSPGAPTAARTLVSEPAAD
assayNotes: In vitro functional activity (agonism) on human S1P5 receptors, CHO-human-S1P5-Aequorin assay
Format: cell-based
measurementConditions: aequorin luminescence, CHO cells, 3 independent experiments
Where a name gives a salt, the structure may show the parent alone.
// no unit, no text: just the number

Notebook: O=C(O)CN1CCC2(CC1)COc1cc(OCc3c(Cl)cc(Cl)cc3Cl)ccc12 [Compound 110, hydrochloride] , S1P5 pEC50 read as 7.8

Notebook: O=C(O)CCN1CCC2(CC1)COc1cc(S(=O)(=O)Cc3c(Cl)cccc3Cl)ccc12 [Compound 299, hydrochloride] , S1P5 pEC50 read as 6

Notebook: O=C(O)CCN1CCC2(CC1)COc1cc(OCc3c(Cl)cccc3OC(F)(F)F)ccc12 [Compound 77, hydrochloride] , S1P5 pEC50 read as 7.6

Notebook: CCCCCCCOc1ccc2c(c1F)OCC21CCN(CCC(=O)O)CC1 , S1P5 pEC50 read as 7.1

Notebook: Cc1c(OCc2c(Cl)cccc2Cl)ccc2c1OCC21CCN(CCC(=O)O)CC1 [Compound 129, hydrochloride] , S1P5 pEC50 read as 7.5

Notebook: O=C(O)CCN1CCC2(CC1)COc1cc(/C=C/c3ccccc3F)ccc12 [Compound 171, hydrochloride] , S1P5 pEC50 read as 6.5

Notebook: CC(C)c1cccc(Cl)c1COc1ccc2c(c1)OCC21CCN(CCCC(=O)O)CC1 [Compound 127, hydrochloride] , S1P5 pEC50 read as 6.9

Notebook: CCc1ccc(Cl)c(COc2ccc3c(c2)OCC32CCN(CCC(=O)O)CC2)c1Cl [Compound 68, hydrochloride] , S1P5 pEC50 read as 7.5

Notebook: CCc1cccc(Cl)c1CSc1ccc2c(c1)OCC21CCN(CCC(=O)O)CC1 [Compound 140, hydrochloride] , S1P5 pEC50 read as 8.5

Notebook: O=C(O)CCN1CCC2(CC1)OCc1cc(OCc3c(Cl)cccc3Cl)ccc12 [Compound 203, hydrochloride] , S1P5 pEC50 read as 6.7

Notebook: CCc1cccc(Cl)c1COc1ccc2c(c1)OCC21CCN(CC(=O)O)CC1 [Compound 111, hydrochloride] , S1P5 pEC50 read as 7.6

Notebook: CCCCCCCCOc1ccc2c(c1F)OCC21CCN(CCC(=O)O)CC1 , S1P5 pEC50 read as 7.8

Notebook: O=C(O)CCN1CCC2(CC1)COc1cc(OCc3c(Cl)cccc3Cl)c(F)cc12 , S1P5 pEC50 read as 7.5

Notebook: CCc1ccc(Cl)c(COc2ccc3c(c2)OCC32CCN(CCC(=O)O)CC2)c1 [Compound 51, hydrochloride] , S1P5 pEC50 read as 6.6

Notebook: Cc1cc(Cl)c(COc2ccc3c(c2)OCC32CCN(CCC(=O)O)CC2)c(Cl)c1 [Compound 59, hydrochloride] , S1P5 pEC50 read as 7.8
